test system: Cyperus iria; test: Preemergence weed control under flooded paddy conditions, CYPIR (Rice Flatsedge); format: in vivo; details: 0.2500 kg/ha; preemergence weeds, flooded paddy; herbicidal effect rating 0-9, three to four weeks after treatment
PROPERTY_MEASURED: CYPIR
Write the value as a bare number.

Worked cases, CYPIR given:
{"MOLECULE": "Cc1ccc(OCC(=O)N(C)S(C)(=O)=O)c(-c2nsc3ccc(-n4c(=O)cc(C(F)(F)F)n(C)c4=O)cc23)c1 [Example 437]", "CYPIR": 6.0}
{"MOLECULE": "C#CCOC(=O)COc1cc2c(cc1-c1nsc3ccc(-n4c(=O)cc(C(F)(F)F)n(C)c4=O)cc13)CCC2 [Example 436]", "CYPIR": 7.0}
{"MOLECULE": "COC(=O)COc1cc2c(cc1-c1nsc3ccc(-n4c(=O)cc(C(F)(F)F)n(C)c4=O)cc13)CCC2 [Example 434]", "CYPIR": 8.0}

Consider COC(=O)COc1ccc(C)cc1-c1nsc2cc(Cl)c(-n3c(=O)cc(C(F)(F)F)n(C)c3=O)cc12 [Example 443] . Its measured CYPIR is 7.0

Consider CCSC(=O)c1nsc2ccc(-n3c(=O)cc(C(F)(F)F)n(C)c3=O)cc12 [Example 422] . Its measured CYPIR is 9.0

Consider Cc1ccc(OCC(=O)NS(C)(=O)=O)c(-c2noc3cc(F)c(-n4c(=O)cc(C(F)(F)F)n(C)c4=O)cc23)c1 [Example 428] . Its measured CYPIR is 7.0

Consider COc1ccc(CC(=O)OCc2nsc3ccc(-n4c(=O)cc(C(F)(F)F)n(C)c4=O)cc23)cc1 [Example 450] . Its measured CYPIR is 9.0
